- assayNotes: The drug is tested on Actinomyces graevenitzii strain: DSM15540 for biotransformation under microaerobic condition. The drug concentrations were measured over 6 timepoints collected between 0 and 12 hours of incubation by liquid-chromatography-coupled mass spectrometry (LC–MS)
- Format: ADME
- Set-up: dose 5 uM, timepoint 0, 1.5, 3, 6, 9, 12 hours
- measurementConditions: 5 µM
assayReadout: Bacterial Biotransformation

[
  {
    "compound": "CO[C@H]1C[C@@H]2CC[C@@H](C)[C@@](O)(O2)C(=O)C(=O)N2CCCC[C@H]2C(=O)O[C@H]([C@H](C)C[C@@H]2CC[C@@H](OCCO)[C@H](OC)C2)CC(=O)[C@H](C)/C=C(\\C)[C@@H](O)[C@@H](OC)C(=O)[C@H](C)C[C@H](C)/C=C/C=C/C=C/1C",
    "reportedMeasurement": "Compound NOT metabolized"
  },
  {
    "compound": "C[C@H]1C[C@@H]2[C@H]([C@@H](O)C[C@@]3(C)[C@H]2CC[C@]3(O)C(=O)CO)[C@@]2(C)C=CC(=O)C=C12",
    "reportedMeasurement": "Compound NOT metabolized"
  },
  {
    "compound": "CC(C)NCC(O)COc1ccc(CC(N)=O)cc1 (stereo unspecified)",
    "reportedMeasurement": "Compound NOT metabolized"
  },
  {
    "compound": "C=CC[C@@H]1/C=C(\\C)C[C@H](C)C[C@H](OC)[C@H]2O[C@@](O)(C(=O)C(=O)N3CCCC[C@H]3C(=O)O[C@H](/C(C)=C/[C@@H]3CC[C@@H](O)[C@H](OC)C3)[C@H](C)[C@@H](O)CC1=O)[C@H](C)C[C@@H]2OC.O",
    "reportedMeasurement": "Compound NOT metabolized"
  },
  {
    "compound": "C[C@]12CCC(=O)C=C1CC[C@@H]1[C@@H]2[C@@H](O)C[C@@]2(C)[C@H]1CC[C@]2(O)C(=O)CO [HYDROCORTISONE]",
    "reportedMeasurement": "Compound NOT metabolized"
  },
  {
    "compound": "CCOC(=O)[C@H](CCc1ccccc1)N[C@@H](C)C(=O)N1[C@H](C(=O)O)C[C@@H]2CCC[C@@H]21",
    "reportedMeasurement": "Compound NOT metabolized"
  }
]

====

- assayNotes: The drug is tested on the gut metagenome community of A-03 with ENA study accession number: PRJEB31790 for biotransformation under microaerobic condition. The drug concentrations were measured over 7 timepoints collected between 0 and 12 hours of incubation by liquid-chromatography-coupled mass spectrometry (LC–MS)
- Type: ADME
- Design: dose 5 uM, timepoint 0, 0.75, 1.5, 3, 6, 9, 12 hours
- measurementConditions: 5 µM

[
  {
    "compound": "C[C@@H](NCCCc1cccc(C(F)(F)F)c1)c1cccc2ccccc12",
    "Bacterial Biotransformation": "Compound NOT metabolized"
  },
  {
    "compound": "CCOC(=O)C1=C(COCCN)NC(C)=C(C(=O)OC)C1c1ccccc1Cl (stereo not drawn)",
    "Bacterial Biotransformation": "Compound NOT metabolized"
  }
]

====

- assayNotes: The drug is tested on the gut metagenome community of A-03 with ENA study accession number: PRJEB31790 for biotransformation under anaerobic condition. The drug concentrations were measured over 7 timepoints collected between 0 and 12 hours of incubation by liquid-chromatography-coupled mass spectrometry (LC–MS)
- Type: ADME
- Design: dose 5 uM, timepoint 0, 0.75, 1.5, 3, 6, 9, 12 hours
- measurementConditions: 5 µM

[
  {
    "molecule": "CCOc1nc2cccc(C(=O)O)c2n1Cc1ccc(-c2ccccc2-c2nnn[nH]2)cc1",
    "Bacterial Biotransformation": "Compound NOT metabolized"
  },
  {
    "molecule": "C[C@@H](NCCCc1cccc(C(F)(F)F)c1)c1cccc2ccccc12",
    "Bacterial Biotransformation": "Compound NOT metabolized"
  },
  {
    "molecule": "COc1ccc([C@@H]2Sc3ccccc3N(CCN(C)C)C(=O)[C@@H]2OC(C)=O)cc1 [DILTIAZEM]",
    "Bacterial Biotransformation": "Compound metabolized"
  },
  {
    "molecule": "CCOC(=O)C1=C(COCCN)NC(C)=C(C(=O)OC)C1c1ccccc1Cl (stereo not given) [AMLODIPINE]",
    "Bacterial Biotransformation": "Compound NOT metabolized"
  },
  {
    "molecule": "C[C@H]1C[C@@H]2[C@H]([C@@H](O)C[C@@]3(C)[C@H]2CC[C@]3(O)C(=O)CO)[C@@]2(C)C=CC(=O)C=C12 [METHYLPREDNISOLONE]",
    "Bacterial Biotransformation": "Compound metabolized"
  }
]
